Assay: Quantitative highthroughput screen to assess conditional lethalithy of P12 Ichikawa cells grown in RPMI1640 with untreated serum (RPMI+s) (AID 1963881); also: nearly all actives have a fitted effect of over 35% in size
Conditions: ATP luminescence, 48 h; viability; series mostly up to 45.8 µM
Records with an inconclusive call do not appear. Calls of active or inactive are those of the source. Calls follow the shape of the dose curve; as a rule, active = well fitted cell-killing curve with a large enough effect; inconclusive = small, poorly fitted or top-dose-only effect; inactive = flat fitted curve, though single readings scatter.
Pick from True for active, False for inactive when you respond.

Record excerpt, results attached:
CC(=O)C1=C(O)C=C2Oc3c(C(C)=O)c(O)c(C)c(O)c3C2(C)C1=O (configuration not stated) : True
CC(=NNC(=S)N1CCC1)c1ccccn1 : True
CC(C)Cc1ccc(C(C)C(=O)O)cc1 (configuration not stated) : False

Ask | Answer briefly: the call reported for Clc1ccc(C(c2ccc(Cl)cc2)n2cc[n+](CC(OCc3ccc(Cl)cc3Cl)c3ccc(Cl)cc3Cl)c2)cc1 (configuration not stated) in this assay.
Reply | True

Ask | Recorded call for `Nc1ccc(S(=O)(=O)Nc2ccnn2-c2ccccc2)cc1` ?
Reply | False

Ask | Hi team, can someone confirm the assay call for O=C1c2c(O)cc(O)cc2OC(c2ccc(O)c(O)c2)C1O (configuration not stated) ?
Reply | False

Ask | So what was the verdict on `O=C(O)C=Cc1ccc(Cn2ccnc2)cc1` in this test?
Reply | False

Ask | Please share the test call associated with `COc1cc2c(cc1OC)CN(CCc1ccc(NC(=O)c3cccc4c(=O)c5cccc(OC)c5[nH]c34)cc1)CC2` .
Reply | True

Ask | Please state the recorded outcome for this molecule: COc1ccc(COc2cc3oc(=O)c4cc(C(C)O)ccc4c3cc2OC)cc1 (configuration not stated)
Reply | True

Ask | Fill in: this test's call for `Nc1[nH]nc2nnc(-c3c(-c4ccccc4)nn4ccccc34)cc12` is ___
Reply | True
